Assay: viability of HCT116 lacking mutant beta-catenin – cell-based, human colon tumor, dose response (AID 1045);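 also: HCT116 colon tumor cells with beta catenin knocked out; cells exposed to compound for 60 hours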
Format: functional
Calls of active or inactive are those of the source.
Please go through the items and note down their EC50.

Below are worked cases with known answers.
| COMPOUND | EC50 |
| --- | --- |
| CCC(=O)Nc1cccc(C(=O)/C=C/c2ccccc2)c1 | 2.34 µM (active) |
| COc1ccc(C2=NN(CN3C(=O)C(=O)c4ccccc43)C(c3ccc(Br)cc3)C2)cc1 (stereo unspecified) | 26.2 µM (active) |
| Cc1ccc(C(C(=O)NCc2ccco2)N(C(=O)CNC(=O)c2cccs2)c2c(C)cccc2C)cc1 (stereo unspecified) | 8.32 µM (active) |
| COc1ccc(Oc2c(Cl)cnn(-c3ccc(Cl)c(Cl)c3)c2=O)cc1 | 10.8 µM (active) |

Go through the items and report each one's EC50.
1. COc1ccc(C2NCCc3c2[nH]c2ccccc32)cc1COc1ccc(F)cc1 (stereo unspecified)
2. COc1ccc(OC)c(CCNC(=O)Cn2sc3nc(C)cc(C)c3c2=O)c1

result:
1: 7.05 µM (active); 2: 16.7 µM (active)

Go through the items and report each one's EC50.
1. CCC(C)NS(=O)(=O)c1ccc(NC(=O)C(Sc2ccccc2)c2ccccc2)cc1 (stereo unspecified)
2. COc1ccccc1CN(Cc1nc(O)c2ccccc2n1)S(=O)(=O)c1ccc2ccccc2c1

result:
["14.5 µM (active)", "17.4 µM (active)"]

Go through the items and report each one's EC50.
1. CC(NC(=O)/C(C#N)=C/c1ccc(Cl)c([N+](=O)[O-])c1)c1ccccc1 (stereo unspecified)
2. O=C(Nc1ccc(Cl)c(Cl)c1)Nc1cc(S(=O)(=O)N2CCOCC2)ccc1N1CCCC1
3. CC(C)Cn1c(N)c(C(=O)NCc2cccs2)c2nc3ccccc3nc21

result:
13.5 µM (active)
20.3 µM (active)
47 µM (active)

###

Molecular target: Methionyl-tRNA synthetase, putative (Trypanosoma brucei brucei)
Sequence (Q38C91 whole entry): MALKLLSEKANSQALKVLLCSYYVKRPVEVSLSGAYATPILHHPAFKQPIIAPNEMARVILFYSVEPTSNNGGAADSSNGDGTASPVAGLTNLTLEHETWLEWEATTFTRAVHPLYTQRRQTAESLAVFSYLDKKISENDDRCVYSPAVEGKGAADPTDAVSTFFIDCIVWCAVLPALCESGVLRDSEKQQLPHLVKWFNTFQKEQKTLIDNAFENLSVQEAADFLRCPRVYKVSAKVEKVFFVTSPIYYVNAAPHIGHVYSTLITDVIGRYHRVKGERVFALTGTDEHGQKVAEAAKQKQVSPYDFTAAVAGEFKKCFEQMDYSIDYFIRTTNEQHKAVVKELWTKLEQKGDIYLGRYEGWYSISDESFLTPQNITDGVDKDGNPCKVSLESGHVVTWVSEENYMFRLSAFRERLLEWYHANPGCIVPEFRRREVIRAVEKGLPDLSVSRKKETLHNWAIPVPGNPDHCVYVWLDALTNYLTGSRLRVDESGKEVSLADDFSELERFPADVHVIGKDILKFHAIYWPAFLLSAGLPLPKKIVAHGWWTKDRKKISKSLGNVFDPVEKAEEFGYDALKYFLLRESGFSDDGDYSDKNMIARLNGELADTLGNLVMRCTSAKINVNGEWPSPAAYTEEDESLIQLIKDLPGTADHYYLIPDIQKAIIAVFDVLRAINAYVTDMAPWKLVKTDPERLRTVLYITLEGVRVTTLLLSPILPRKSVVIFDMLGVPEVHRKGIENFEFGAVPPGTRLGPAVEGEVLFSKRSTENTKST
Format: functional, Trypanosoma brucei brucei strain 927/4 GUTat10.1
Activity calls are given as the source filed them.
Please go through the items and note down their IC50.

| MOLECULE | IC50 |
| --- | --- |
| Cc1ccc(NC(=O)CN(C)C(=O)CCSc2ccc(F)cc2)cc1 | 3.09 µM (active) |
| CC(C)(Oc1ccc(Cl)cc1)C(=O)OCc1nc2ccsc2c(=O)[nH]1 | 9.89 µM (active) |
| C/C(=C1/SC(=S)N(CCC(=O)O)C1=O)c1ccc(O)cc1 | 9.47 µM (active) |
| O=C(NCc1cc(Cl)cc(Cl)c1)c1ccc2[nH]c([C@H]3C[C@H](O)[C@@H](CO)O3)nc2c1 | 13.5 µM (inactive) |

query: Tell me the measured IC50 of NC(Cc1ccc(Cl)cc1)c1csc(NC(=O)Nc2ccccc2)n1 (stereo not given) , please.
result: 2.09 µM (active)

###

Molecular target: Sentrin-specific protease 6 (Homo sapiens);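 also: Luminescence-based dose-response confirmatory assay of SENP6 inhibition, following up an ultra-high-throughput screen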
Sequence (Q9GZR1 whole entry): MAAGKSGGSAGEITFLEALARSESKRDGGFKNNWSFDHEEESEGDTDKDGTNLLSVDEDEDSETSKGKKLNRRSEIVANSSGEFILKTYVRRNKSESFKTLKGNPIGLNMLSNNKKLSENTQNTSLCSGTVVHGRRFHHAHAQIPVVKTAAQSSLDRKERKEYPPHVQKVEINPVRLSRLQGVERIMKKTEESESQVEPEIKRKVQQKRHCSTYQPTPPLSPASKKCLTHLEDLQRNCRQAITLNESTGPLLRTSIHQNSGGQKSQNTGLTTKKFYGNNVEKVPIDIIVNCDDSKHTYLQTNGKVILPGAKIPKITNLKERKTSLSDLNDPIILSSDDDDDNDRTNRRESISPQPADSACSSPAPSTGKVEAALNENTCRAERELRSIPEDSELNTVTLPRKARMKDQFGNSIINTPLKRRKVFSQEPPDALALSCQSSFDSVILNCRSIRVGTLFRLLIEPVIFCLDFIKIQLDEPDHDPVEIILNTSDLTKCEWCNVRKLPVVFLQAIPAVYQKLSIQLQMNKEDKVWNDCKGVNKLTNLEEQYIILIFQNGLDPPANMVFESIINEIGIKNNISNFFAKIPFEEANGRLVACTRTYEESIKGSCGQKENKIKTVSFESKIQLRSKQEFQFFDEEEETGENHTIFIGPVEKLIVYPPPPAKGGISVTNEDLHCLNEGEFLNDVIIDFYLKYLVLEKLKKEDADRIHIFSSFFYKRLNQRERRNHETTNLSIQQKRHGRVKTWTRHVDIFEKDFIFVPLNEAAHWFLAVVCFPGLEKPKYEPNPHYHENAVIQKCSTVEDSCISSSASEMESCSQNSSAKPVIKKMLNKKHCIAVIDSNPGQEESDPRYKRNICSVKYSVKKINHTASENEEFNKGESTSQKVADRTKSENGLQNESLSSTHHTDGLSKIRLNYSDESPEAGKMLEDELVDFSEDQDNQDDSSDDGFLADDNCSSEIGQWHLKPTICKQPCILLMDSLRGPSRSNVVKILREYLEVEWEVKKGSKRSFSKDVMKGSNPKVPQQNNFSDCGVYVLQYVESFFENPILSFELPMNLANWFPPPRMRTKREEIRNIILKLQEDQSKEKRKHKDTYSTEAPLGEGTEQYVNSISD
Type: functional
The source made the active and inactive calls.
MEASUREMENT_TYPE: IC50

Below are worked cases with known answers.
| SMILES | MEASURED |
| --- | --- |
| Oc1ccccc1-c1csc(-c2ccccc2)n1 | 7.62 µM (active) |
| Cc1ccccc1C(=O)Oc1ccc2ccc(O)cc2c1 | 10.4 µM (active) |
| CCOC(=O)c1sc(Nc2ccccc2Cl)nc1C | 19.8 µM (active) |
| Cc1ccc(NC(=O)c2ccc3c(c2)OCO3)cc1Cl | 5.35 µM (active) |

Go through the items and report each one's IC50.
1. CC(C)c1ccc(-c2nnn(CCC(=O)O)n2)cc1
2. CN(C)c1ccc(C(=O)/C=C/c2ccccc2)cc1

result:
1: 9.32 µM (active); 2: 11.6 µM (active)
